assay: Plasma pharmacokinetics in cycle 1; assay type: in vivo, human; conditions: human, plasma, iv, 125 mg/m2
Structures can show the parent of a compound that is named as a salt.

# Compound, half-life (h)
records = [
    ("COc1cccc(OCCCN)c1-c1cc(Nc2cnc(C#N)cn2)n[nH]1 [prexasertib, Prexasertib mesylate monohydrate]", 8.5),
]

----------
experiment: Plasma pharmacokinetics in cycle 1; format: in vivo, human; details: human, plasma, intravenous
Where a name gives a salt, the structure may show the parent alone.
Readout type: Tmax (h)

# Compound, Reading
data = [
    ("COc1cccc(OCCCN)c1-c1cc(Nc2cnc(C#N)cn2)n[nH]1 [prexasertib, Prexasertib mesylate monohydrate]", 1.2),
]

----------
assay: Plasma pharmacokinetics in cycle 1; assay type: in vivo, human; details: human, plasma, iv, 150 mg/m2
Structures can show the parent of a compound that is named as a salt.
Readout type: Tmax (h)

# Compound, Value unit, Reading
rows = [
    ("COc1cccc(OCCCN)c1-c1cc(Nc2cnc(C#N)cn2)n[nH]1 [prexasertib, Prexasertib mesylate monohydrate]", "h", 1.2),
]

----------
test: Plasma pharmacokinetics in cycle 1; format: in vivo, human; settings: human, plasma, iv, 100 mg/m2
Where a name gives a salt, the structure may show the parent alone.

# Compound, Tmax [h]
rows = [
    ("COc1cccc(OCCCN)c1-c1cc(Nc2cnc(C#N)cn2)n[nH]1 [prexasertib, Prexasertib mesylate monohydrate]", 1.1),
]

----------
assay: Plasma pharmacokinetics in cycle 1; assay type: in vivo, human; details: human, plasma, iv, 80 mg/m2
Where a name gives a salt, the structure may show the parent alone.
Readout type: AUC(0-inf)

# Compound, Reading
data = [
    ("COc1cccc(OCCCN)c1-c1cc(Nc2cnc(C#N)cn2)n[nH]1 [prexasertib, Prexasertib mesylate monohydrate]", "1730 ng·h/mL"),
]

Data credit: paper PMC9090141
